test system: 786-0; assay: NCI tumour cell line growth inhibition, 48 h
The source made the active and inactive calls. Rule as the data show it: active = GI50 up to about 1.1 µM and inactive = higher.
Outcomes: t (active), f (inactive)

compound	test-system	label-class
Cn1cc2c(=O)n3ncn(-c4ccc(Br)cc4)c3nc2n1	786-0	f
CCOC(=O)C(=CNC(=S)Nc1c(CC)cccc1CC)C(=O)OCC	786-0	f
CCN(CC)CC1CCCCN1CC(=O)N1c2ccccc2NC(=O)c2ccccc21 (centres undefined)	786-0	f
O=C1c2ccccc2C2(c3ccc(Cl)cc3)N[C@@H]3CCCC[C@@H]3N12 (some centres undefined)	786-0	f
CC(=O)c1csc2c1C(=O)c1scc(C(C)=O)c1C2=O	786-0	f
Cc1cc(C)c(-n2c(-c3ccccc3)cs/c2=N\N=C2C=C(C(C)(C)C)C(=O)C(C(C)(C)C)=C2)c(C)c1	786-0	f
CC[C@@H](/C=C\CCC(=O)C[C@H](O)CCC=C(C)C)O[Si](C(C)C)(C(C)C)C(C)C	786-0	f
O=C(/C=C1\NC(=O)c2ccccc2N1)c1ccncc1	786-0	f
CCCCCCCC(=O)NC(C)(C)C(=O)NCC(=O)NC(CC(C)C)C(=O)NC(C)(C)C(=O)NCC(=O)NCC(=O)NC(CC(C)C)C(=O)NC(C)(C)C(=O)NCC(=O)NC(C(=O)NC(CO)CC(C)C)C(C)CC (centres undefined)	786-0	f
CN(CC(=O)O)c1ncc2c(n1)CCCC2	786-0	f
COc1cc(C2C(Cl)C(=O)N2c2ccc(Br)cc2)cc(I)c1O (centres undefined)	786-0	f
O=c1nc(NC2CCCCO2)ccn1CCO (centres undefined)	786-0	f
CCN(CC)c1ccc(/N=N/c2ccc(-c3nc4ccc[n+](C)c4o3)cc2)cc1	786-0	f
O=C1c2cc([N+](=O)[O-])sc2C(=O)c2c([N+](=O)[O-])csc21	786-0	t
COc1ccc(-c2nc(SCC(=O)N/N=C/c3ccc(N(C)C)cc3)[nH]c2-c2ccc(OC)cc2)cc1	786-0	f
NNC(=O)CC(=O)Nc1ccccc1F	786-0	f
Cn1c2ccccc2c2cc(N3CCCC3)c3c(c21)C(=O)N(c1ccccc1)C3=O	786-0	f
CCOc1ccc(NC(=O)/C(=C/c2ccccc2)C(C)=O)cc1	786-0	f
CCOC(=O)c1c(N2CCOCC2)[nH]c(=O)c(C(c2cccs2)c2c(O)c(C(=O)OCC)c(N3CCOCC3)[nH]c2=O)c1O	786-0	f
